- subjectOfTest: d-enCas12a (Acidaminococcus sp., UniProt U2UMQ6 1-1307, E174R;S542R;K548R;D908A;E993A;D1235A)
- methodNotes: Spec-seq (native PAGE EMSA with sequencing of bound and unbound); 25 mM Tris-HCl pH 7.4, 150 mM KCl, 5 mM MgCl2, 10% glycerol, 1 mM DTT, 40 ng/uL salmon sperm DNA; 400 nM Cas12a, 480 nM crRNA, 50 nM library, 37 C 1 h; native PAGE at room temperature; high values mean tight binding;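 also: relative affinity from the bound to unbound sequence frequency ratio in Spec-seq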
- measurementParameters: protein: recombinant
metric: binding signal

TACT (dsDNA) DNA 1: GCTATCTAGTGCTCAGTACGCACTGTACTAGGAAACTTCTGGCAGGACCAGGTCATGAGATCGGAAGAGCACACGTCTGAACTCCAGTCA DNA 2: TGACTGGAGTTCAGACGTGTGCTCTTCCGATCTCATGACCTGGTCCTGCCAGAAGTTTCCTAGTACAGTGCGTACTGAGCACTAGATAGC RNA: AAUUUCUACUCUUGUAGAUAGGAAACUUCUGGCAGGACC    -2.8 lnKA
GGCA (dsDNA) DNA 1: GCTATCTAGTGCTCAGTACGCACTGGGCAAGGAAACTTCTGGCAGGACCAGGTCATGAGATCGGAAGAGCACACGTCTGAACTCCAGTCA DNA 2: TGACTGGAGTTCAGACGTGTGCTCTTCCGATCTCATGACCTGGTCCTGCCAGAAGTTTCCTTGCCCAGTGCGTACTGAGCACTAGATAGC RNA: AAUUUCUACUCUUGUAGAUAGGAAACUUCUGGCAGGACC    -4.74 lnKA
ATGC (dsDNA) DNA 1: GCTATCTAGTGCTCAGTACGCACTGATGCAGGAAACTTCTGGCAGGACCAGGTCATGAGATCGGAAGAGCACACGTCTGAACTCCAGTCA DNA 2: TGACTGGAGTTCAGACGTGTGCTCTTCCGATCTCATGACCTGGTCCTGCCAGAAGTTTCCTGCATCAGTGCGTACTGAGCACTAGATAGC RNA: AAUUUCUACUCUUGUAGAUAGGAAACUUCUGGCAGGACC    -5.32 lnKA
AGTC (dsDNA) DNA 1: GCTATCTAGTGCTCAGTACGCACTGAGTCAGGAAACTTCTGGCAGGACCAGGTCATGAGATCGGAAGAGCACACGTCTGAACTCCAGTCA DNA 2: TGACTGGAGTTCAGACGTGTGCTCTTCCGATCTCATGACCTGGTCCTGCCAGAAGTTTCCTGACTCAGTGCGTACTGAGCACTAGATAGC RNA: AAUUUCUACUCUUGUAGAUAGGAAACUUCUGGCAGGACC    -2.3 lnKA
CTGT (dsDNA) DNA 1: GCTATCTAGTGCTCAGTACGCACTGCTGTAGGAAACTTCTGGCAGGACCAGGTCATGAGATCGGAAGAGCACACGTCTGAACTCCAGTCA DNA 2: TGACTGGAGTTCAGACGTGTGCTCTTCCGATCTCATGACCTGGTCCTGCCAGAAGTTTCCTACAGCAGTGCGTACTGAGCACTAGATAGC RNA: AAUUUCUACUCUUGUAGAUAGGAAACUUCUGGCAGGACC    -5.79 lnKA
TGCG (dsDNA) DNA 1: GCTATCTAGTGCTCAGTACGCACTGTGCGAGGAAACTTCTGGCAGGACCAGGTCATGAGATCGGAAGAGCACACGTCTGAACTCCAGTCA DNA 2: TGACTGGAGTTCAGACGTGTGCTCTTCCGATCTCATGACCTGGTCCTGCCAGAAGTTTCCTCGCACAGTGCGTACTGAGCACTAGATAGC RNA: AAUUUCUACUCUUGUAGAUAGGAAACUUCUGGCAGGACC    -3.38 lnKA

Notebook: TCAG (dsDNA) DNA 1: GCTATCTAGTGCTCAGTACGCACTGTCAGAGGAAACTTCTGGCAGGACCAGGTCATGAGATCGGAAGAGCACACGTCTGAACTCCAGTCA DNA 2: TGACTGGAGTTCAGACGTGTGCTCTTCCGATCTCATGACCTGGTCCTGCCAGAAGTTTCCTCTGACAGTGCGTACTGAGCACTAGATAGC RNA: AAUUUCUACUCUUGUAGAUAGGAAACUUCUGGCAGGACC , binding signal read as -5.78 lnKA

Notebook: CGAT (dsDNA) DNA 1: GCTATCTAGTGCTCAGTACGCACTGCGATAGGAAACTTCTGGCAGGACCAGGTCATGAGATCGGAAGAGCACACGTCTGAACTCCAGTCA DNA 2: TGACTGGAGTTCAGACGTGTGCTCTTCCGATCTCATGACCTGGTCCTGCCAGAAGTTTCCTATCGCAGTGCGTACTGAGCACTAGATAGC RNA: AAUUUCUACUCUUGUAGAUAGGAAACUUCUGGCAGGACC , binding signal read as -5.8 lnKA

Notebook: CCAG (dsDNA) DNA 1: GCTATCTAGTGCTCAGTACGCACTGCCAGAGGAAACTTCTGGCAGGACCAGGTCATGAGATCGGAAGAGCACACGTCTGAACTCCAGTCA DNA 2: TGACTGGAGTTCAGACGTGTGCTCTTCCGATCTCATGACCTGGTCCTGCCAGAAGTTTCCTCTGGCAGTGCGTACTGAGCACTAGATAGC RNA: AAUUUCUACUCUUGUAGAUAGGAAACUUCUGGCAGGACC , binding signal read as -5.72 lnKA
